# System tested: D(1A) dopamine receptor (Homo sapiens)
# Sequence (P21728 whole entry): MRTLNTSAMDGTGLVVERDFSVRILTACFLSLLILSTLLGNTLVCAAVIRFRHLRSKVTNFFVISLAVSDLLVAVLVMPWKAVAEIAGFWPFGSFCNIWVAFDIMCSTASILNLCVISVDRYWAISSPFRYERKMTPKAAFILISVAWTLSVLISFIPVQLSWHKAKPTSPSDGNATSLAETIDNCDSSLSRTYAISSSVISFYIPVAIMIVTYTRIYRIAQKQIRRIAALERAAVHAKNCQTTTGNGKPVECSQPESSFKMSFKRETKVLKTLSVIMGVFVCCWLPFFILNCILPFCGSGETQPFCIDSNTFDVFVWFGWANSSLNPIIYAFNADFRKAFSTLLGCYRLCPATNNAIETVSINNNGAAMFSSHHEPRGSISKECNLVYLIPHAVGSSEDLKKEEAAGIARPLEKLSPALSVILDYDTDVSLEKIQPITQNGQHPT
# Measurement notes: Displacement of [3H]SCH23390 from human recombinant dopamine D1 receptor expressed in HEKT cell membrane after 90 mins by scintillation counting method
Property label: Ki
Field note: include the unit after the figure.

Report its Ki with D(1A) dopamine receptor (Homo sapiens) as the test system: `COc1ccc(CCN(CCCc2ccccc2)CCc2ccc3c(c2)OCO3)cc1OC` 1680 nM

---

# Measurement notes: Displacement of [3H]DTG from sigma 2 receptor stable expressed in rat PC12 cells after 90 mins by scintillation counting method
# Format: cell-based
# Measurement context: pc-12
Property label: Ki (µM)
Please reply with the bare figure in µM and do not write the unit itself.

Determine its reported Ki: `COc1ccc(CCN(CCCc2ccccc2)CCc2ccc3c(c2)OCO3)cc1OC` 0.242

Values were extracted from ChEMBL document CHEMBL3734659.
